TESTED_ON: ETS1 (UniProt P14921)
Sequence: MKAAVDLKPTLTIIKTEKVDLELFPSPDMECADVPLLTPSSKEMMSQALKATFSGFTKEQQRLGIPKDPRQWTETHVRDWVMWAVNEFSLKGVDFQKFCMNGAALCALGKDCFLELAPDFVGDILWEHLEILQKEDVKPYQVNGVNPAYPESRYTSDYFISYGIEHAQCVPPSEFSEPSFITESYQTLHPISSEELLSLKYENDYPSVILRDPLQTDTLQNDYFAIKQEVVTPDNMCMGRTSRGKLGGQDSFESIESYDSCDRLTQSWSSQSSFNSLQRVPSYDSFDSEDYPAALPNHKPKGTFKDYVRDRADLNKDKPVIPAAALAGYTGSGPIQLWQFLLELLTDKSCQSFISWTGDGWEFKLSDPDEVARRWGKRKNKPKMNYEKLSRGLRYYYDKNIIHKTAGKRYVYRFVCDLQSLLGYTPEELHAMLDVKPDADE
METHOD: ETS1 binding intensity (PBM fluorescence), ETS1 alone (arbitrary fluorescence units); higher = stronger binding
RUN_CONDITIONS: ETS1 concentration 1 nM; RUNX1 concentration 0 nM
Would you mind labelling by ETS1 binding intensity? At or over 500 is Fulfilled, under is Not fulfilled.

Look over these answered cases.
GCGCACGCGCGTTGTTTCCGCGGTAGTCAGGGCAGT: Not fulfilled
CTTCAGGGGTGGGGCTTCCTGCCGCAGAGCCGCCTT: Fulfilled
TGGTGTGACCAGGATGTGAACCGCGGCAAGCTGCCT: Fulfilled

Proceed to the following item.
Asked: Has CGGGGGCCAGGCTTCCTGTGGTGGGAGCGGCAGGCC a recorded ETS1 binding intensity greater than or equal to 500?
Given back: Not fulfilled

* * *

TESTED_ON: ETS1 (UniProt P14921)
Sequence: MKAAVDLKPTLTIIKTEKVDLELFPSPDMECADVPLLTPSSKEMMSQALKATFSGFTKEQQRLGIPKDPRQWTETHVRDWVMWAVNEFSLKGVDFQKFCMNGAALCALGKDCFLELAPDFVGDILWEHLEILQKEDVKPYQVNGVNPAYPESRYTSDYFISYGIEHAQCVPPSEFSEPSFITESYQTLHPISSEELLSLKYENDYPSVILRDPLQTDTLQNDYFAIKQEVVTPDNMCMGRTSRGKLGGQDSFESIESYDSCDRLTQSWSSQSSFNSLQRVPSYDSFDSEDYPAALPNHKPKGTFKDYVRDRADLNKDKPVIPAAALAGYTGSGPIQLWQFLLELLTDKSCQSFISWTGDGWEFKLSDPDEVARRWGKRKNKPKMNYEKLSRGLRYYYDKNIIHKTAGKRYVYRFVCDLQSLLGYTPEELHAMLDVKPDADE
METHOD: ETS1 binding intensity (PBM fluorescence), ETS1 alone (arbitrary fluorescence units); higher = stronger binding
RUN_CONDITIONS: ETS1 concentration 1 nM; RUNX1 concentration 0 nM
Provide the reported ETS1 binding intensity of each item.

Answered examples (3):
TGGCTGTCACTTCCTGTCCCACTGTGGTTCCTGGGA: 4940
AGCTGAGAGCCTGCCGGAAGCCACAGCTTCTTCTCG: 4180
GTGAGAGGAAGTGGGCGCTGGTTTAATGTGGTCAGC: 1010

Please give ETS1 binding intensity for each item listed below.
1. GGCTGCGACTTCCGGACTGCTCCTGGCCGCAGGGGG
2. CCAGGATGTAGTTTGGCCACTATTGAGTGGTTTGTT
3. TGTCTTCAGGAAGTGTAGCAGGTGTTGAGGTCAAGC
4. TCGGAGACGGCGAAAGGAAACCGCAAGGAGGCCACC
5. CACGCCTGCGGAAGATGAAAACCACACGTCATGCAG
6. GGGGCTCCGCAGGAAGTAGGGCTCCCACAACTTTGC
7. AACAAAGAGAGAGGAAGTGGGTTGGGCGGGGGGGGT
8. TGCTCAAATGCAGGATGTGGTCTGAGAGTTTCTCCT

Given back:
1: 2070; 2: 448; 3: 900; 4: 642; 5: 448; 6: 2970; 7: 1880; 8: 1910

Please give ETS1 binding intensity for each item listed below.
1. GCCATGGCCACTTCCTGCTTGTAACCACAGCCCAGA
2. CCCCTCAGCTTCCGGGTGCTGCGGCCGCGGCCGAGA
3. CTGAAAAACCGGAAGTGGGTGGTTTGAAACGTAAAT
4. AAGTTCTTCCGGGTCTGCAGTCTGTGGTGTGTTTGC

Given back:
1. 4430
2. 646
3. 18000
4. 478

Please give ETS1 binding intensity for each item listed below.
1. CGGGGCATGCCGGACGCTGTGGTCCTGAAGGCCTGG
2. TTTGATTTCCTGTCTCCATGTTGTGGTCAAGATTGC
3. CCGCCGCGCGCCGGATGCTAAGACCGCGATTTCCCC
4. CTCCATCTGCCCGGAAAACCGCAGCCGCCCCAACCT
5. GGAGGGGCTGGCCGGAAGTGAACCGCAGAGCACGCT

Given back:
1. 536
2. 1080
3. 4180
4. 841
5. 11600

Please give ETS1 binding intensity for each item listed below.
1. GCTGTCCATTTCCGAGATGTTAATGCGGGATCTTGC
2. TGCTTTTCAGGTGCAGGAAGTGGTTTGCCTTTGCCC
3. GTGCAGGCAATGAGGATGTTGTGGGGGAGACAGGGA

Given back:
[408, 7810, 746]

Please give ETS1 binding intensity for each item listed below.
1. TAGCAGGAAGCCGATTCGCCCTATATGCAACCACTT
2. CTCTTCCGCTCAGTCATCCTCAGAGGTGGTAAGACT
3. GGCGGCTTCCGGGATCTGCCTGGCGGTTGCTTTGTC

Given back:
1: 549; 2: 496; 3: 568

Please give ETS1 binding intensity for each item listed below.
1. TCCCGGCGTTCTTCCGCTGGCTCAGCCGCAAGTACC
2. AACTGCCTGGTGGCCGGAAACCGCTGGAGGGAGGGC

Given back:
1: 573; 2: 4740

Please give ETS1 binding intensity for each item listed below.
1. CAAGCCAGGAAGAGGGCCCTCACCAGAAACCGCACT
2. GTTGGGAGGCGCACATCCGGCGGTTACCCGGTGCTT
3. GAAAACTAAGCAGGATGTGGTCTCGGCTGGAGCCTG

Given back:
407
2360
2730

Please give ETS1 binding intensity for each item listed below.
1. TTGAGGGGAAGGGGAGGAAGTGGTCATTGGAACTTG
2. ACTCCTCCCGCTTCCGCTGCCGCAGCCGGTCGTAAC
3. ACAGGAAGTGAGGCTGTGAGGAGTTTGTGGTGTGTA
4. GGACAGGAAGTTCCTGCAGCTTCTACCACAAACCTA

Given back:
2530
1280
2080
2450

Data provenance is the supplement of paper PMC10681739.
